These data points were gathered from patent EP0457326A1.

Measurement Description: Cytotoxicity in uninfected A301 cells
Assay type: cell-based
Study Conditions: human; uninfected A301 cells with sample dilutions, without virus; read-out: Cell Toxicity Partial
Recorded MCC at 168 h by entry

[[record]]
compound = "Cc1cn([C@H]2C[C@H](N=[N+]=[N-])[C@@H](CO)O2)c(=O)[nH]c1=O [control, 3'-azidothymidine]"
measurement_type = "MCC at 168 h"
reading = "> 0.04 mM"


Consider now this further compound.
Value of MCC at 168 h reported for the compound [N-]=[N+]=N[C@]1(CO)O[C@@H](n2cc(Cl)c(=O)[nH]c2=O)C[C@@H]1O is 1 mM
